- TARGET OR TEST SYSTEM: T1, human TIM-3 extracellular domain protein with hFc tag (hTIM-3-hFc) (human, UniProt Q8TDQ0 22-200)
- T1 construct: not shown: human IgG Fc fragment (hFc) of the pCpC vector
- T1 sequence: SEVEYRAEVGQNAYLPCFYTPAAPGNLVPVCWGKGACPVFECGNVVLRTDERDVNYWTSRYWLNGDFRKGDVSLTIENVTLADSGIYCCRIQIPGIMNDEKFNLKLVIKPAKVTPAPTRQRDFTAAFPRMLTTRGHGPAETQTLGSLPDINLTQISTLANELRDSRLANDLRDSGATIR
- PROCEDURE DETAILS: ELISA, coated human TIM-3 ECD protein, 66.667 nM antibody
RECORDED METRIC: OD450
Give your answer as a number; write no unit.

Problem: So what does the record say about OD450 for 18D2H2 fully human TIM-3 antibody (human IgG4, kappa) (antibody, V domains shown) VH: EVQLVESGGDLVQPGGSLRLSCAASGFTFSTYWMTWVRQAPGRGLEWVANIKQDGSAKYYVDSVKGRFTLSRDDAKNSLYLQMNSLRAEDTAVYYCARGSNWFDYWGQGTLVTVSS VL: ETVMTQSPATLSVSPGERATLSCRANQNVYSNLAWYQQKPGQAPRLLIYDASTRATGFPARFSGSGSGTEFTLTISSLQSEDFAVYYCQQYNNWPLTFGGGTKVEIK ?
Result: 2.78

Problem: Fill in: OD450 of 134H3G6 fully human TIM-3 antibody (human IgG4, kappa) (antibody, V domains shown) VH: EVQLVESGGGLVQPGGSLRLSCAASGFTFSNSWMTWVRQAPGKGLEWVANIKQAGTEKYYVDSVKGRFTISRDNAKNSLYLQMNSLRAEDTAVYYCNSGSNYFDYWGQGTLVTVSS VL: EIVMTQSPATLSVSPGERATLSCRARQNFYSNLAWYQQKPGQAPRLLIYGASTRATGIPARFSGSGSGTEFTLTISSLQSEDFAVYYCQQYNNWPLTFGGGTKVEIK is ___
Result: 2.77

Problem: Give its OD450 value. Item: 7A4F10 fully human TIM-3 antibody (human IgG4, kappa) (antibody, V domains shown) VH: EVQLLESGGGLVQPGGSLRLSCAASGFTFRTHLISWVRQAPGKGLEWVAAITGSGGSTYYADSVKGRFIISRDNSKNTLFLQMNSLRAEDTAVYYCAKDGGSGSYDDFWGQGTLVTVSS VL: ETVLTQSPVTLSLSPGERATLSCRASQSVGSYLAWYQQKPGQAPRLLIYDASNRATGIPARFSGSGSGTDFTLTISSLEPEDFAVYYCQQRSNWPPTFGQGTKVEIK
Result: 3.02
